testName: physchem
conditionContext: buffer, pH 7.4
Description: Chromatographic hydrophobicity index, log D of the compound at pH 7.4 by HPLC method
# chromatographic logD listing for each entry below

compound: CCC1CN(Cc2ccccc2)c2cc(C3=CCNCC3)ccc2N1C(C)=O (configuration not stated)
chromatographic logD: 2.8
//
compound: CC(=O)N1c2ccc(C3=CCNCC3)cc2N(Cc2ccccc2CO)C[C@@H]1C1CC1
chromatographic logD: 2.3

====

targetDesc: Histone acetyltransferase p300 (Homo sapiens, UniProt Q09472)
Sequence (Q09472 whole entry): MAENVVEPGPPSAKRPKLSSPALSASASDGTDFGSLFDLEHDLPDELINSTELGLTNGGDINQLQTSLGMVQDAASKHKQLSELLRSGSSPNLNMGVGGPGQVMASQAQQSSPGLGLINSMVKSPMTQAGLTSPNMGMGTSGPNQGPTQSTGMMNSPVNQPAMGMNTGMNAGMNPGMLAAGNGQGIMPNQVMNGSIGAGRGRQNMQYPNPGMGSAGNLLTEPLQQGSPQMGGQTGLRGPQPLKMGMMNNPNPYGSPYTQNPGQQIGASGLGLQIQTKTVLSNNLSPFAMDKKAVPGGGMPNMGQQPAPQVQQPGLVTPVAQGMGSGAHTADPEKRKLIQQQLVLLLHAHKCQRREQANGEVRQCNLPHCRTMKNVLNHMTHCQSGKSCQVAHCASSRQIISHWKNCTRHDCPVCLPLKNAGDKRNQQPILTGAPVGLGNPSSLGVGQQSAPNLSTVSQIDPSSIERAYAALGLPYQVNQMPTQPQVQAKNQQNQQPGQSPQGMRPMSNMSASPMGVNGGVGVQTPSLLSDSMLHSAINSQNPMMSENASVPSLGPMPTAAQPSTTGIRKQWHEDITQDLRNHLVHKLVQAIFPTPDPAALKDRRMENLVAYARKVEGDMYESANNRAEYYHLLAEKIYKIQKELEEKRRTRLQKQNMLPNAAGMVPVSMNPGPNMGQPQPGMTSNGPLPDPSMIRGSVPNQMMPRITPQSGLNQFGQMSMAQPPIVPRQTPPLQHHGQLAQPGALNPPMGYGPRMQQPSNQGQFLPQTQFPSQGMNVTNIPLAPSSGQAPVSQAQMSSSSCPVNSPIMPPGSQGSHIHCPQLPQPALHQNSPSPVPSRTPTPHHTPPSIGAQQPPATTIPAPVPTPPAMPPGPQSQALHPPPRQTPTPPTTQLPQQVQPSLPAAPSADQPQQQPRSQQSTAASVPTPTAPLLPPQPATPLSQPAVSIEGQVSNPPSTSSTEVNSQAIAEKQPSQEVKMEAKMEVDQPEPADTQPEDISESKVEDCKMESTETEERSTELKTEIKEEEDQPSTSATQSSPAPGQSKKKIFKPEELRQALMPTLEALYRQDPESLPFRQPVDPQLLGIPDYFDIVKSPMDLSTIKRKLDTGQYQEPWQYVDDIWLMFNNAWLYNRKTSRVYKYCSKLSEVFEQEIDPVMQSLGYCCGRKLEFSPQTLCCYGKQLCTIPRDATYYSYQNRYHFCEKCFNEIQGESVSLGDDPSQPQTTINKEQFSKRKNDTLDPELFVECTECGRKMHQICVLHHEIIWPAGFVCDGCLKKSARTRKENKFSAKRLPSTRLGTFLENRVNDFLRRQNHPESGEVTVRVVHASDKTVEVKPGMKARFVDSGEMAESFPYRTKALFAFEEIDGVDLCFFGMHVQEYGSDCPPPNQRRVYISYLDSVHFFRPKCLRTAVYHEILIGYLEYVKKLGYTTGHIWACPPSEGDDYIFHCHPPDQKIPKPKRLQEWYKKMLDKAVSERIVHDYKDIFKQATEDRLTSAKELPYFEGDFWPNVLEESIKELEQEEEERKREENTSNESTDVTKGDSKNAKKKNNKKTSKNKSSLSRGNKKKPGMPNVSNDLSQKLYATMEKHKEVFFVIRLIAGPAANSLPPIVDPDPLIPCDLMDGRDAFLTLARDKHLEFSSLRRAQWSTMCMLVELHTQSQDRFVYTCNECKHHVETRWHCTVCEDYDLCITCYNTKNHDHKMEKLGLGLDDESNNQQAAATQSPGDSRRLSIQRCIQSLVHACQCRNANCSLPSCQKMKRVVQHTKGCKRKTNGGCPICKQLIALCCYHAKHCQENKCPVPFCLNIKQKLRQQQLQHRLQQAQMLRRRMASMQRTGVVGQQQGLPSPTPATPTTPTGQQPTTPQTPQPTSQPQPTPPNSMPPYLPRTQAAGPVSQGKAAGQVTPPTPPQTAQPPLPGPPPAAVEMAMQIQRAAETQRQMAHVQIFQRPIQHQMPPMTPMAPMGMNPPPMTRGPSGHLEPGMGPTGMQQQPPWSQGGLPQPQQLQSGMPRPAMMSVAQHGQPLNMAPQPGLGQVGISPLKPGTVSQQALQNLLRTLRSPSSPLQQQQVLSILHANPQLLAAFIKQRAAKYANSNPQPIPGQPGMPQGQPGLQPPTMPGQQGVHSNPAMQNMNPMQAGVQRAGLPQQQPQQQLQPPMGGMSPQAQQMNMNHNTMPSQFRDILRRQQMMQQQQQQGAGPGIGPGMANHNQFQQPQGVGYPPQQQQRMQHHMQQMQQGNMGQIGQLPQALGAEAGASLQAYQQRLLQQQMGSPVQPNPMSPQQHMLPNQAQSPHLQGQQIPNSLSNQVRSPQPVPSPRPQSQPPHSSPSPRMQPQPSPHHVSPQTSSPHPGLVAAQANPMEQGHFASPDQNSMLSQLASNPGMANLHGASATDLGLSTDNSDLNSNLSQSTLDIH
testName: Binding affinity to human partial length DNA-tagged EP300 expressed in bacteria by BROMOscan method
readoutName: Kd

smilesString: CC(=O)N1c2ccc(C3=CCNCC3)cc2N(Cc2ccccc2CO)C[C@@H]1C1CC1
targetDesc: Histone acetyltransferase p300 (Homo sapiens, UniProt Q09472)
result: > 30.2 µM

====

System: PBMC
testName: cells
conditionContext: Homo sapiens, read-out: pIC50 (converted)
Description: Antiinflammatory activity in human PBMC assessed as inhibition of LPS-induced MCP1 release preincubated for 30 mins followed by LPS challenge measured after 24 hrs by immunoassay
Label Satisfied when IC50 is strictly below 2000 nM; at or above that, label Not satisfied.

molecule: CC(=O)N1c2ccccc2N(Cc2ccccc2O)CC1C1CC1 (stereo not drawn)
class: Satisfied
//
molecule: CC(=O)N1c2ccccc2N(Cc2cccc(CO)c2)CC1C1CC1 (stereo not drawn)
class: Satisfied
//
molecule: CC(=O)N1c2ccc(-c3cnc(C(N)=O)nc3)cc2N(Cc2ccccc2CO)C[C@@H]1C1CC1
class: Satisfied
//
molecule: CC(=O)N1c2ccccc2N(Cc2ccccc2C(=O)O)CC1C1CC1 (stereo not drawn)
class: Not satisfied
//
molecule: CC(=O)N1c2ccccc2N(Cc2ccc(Cl)cc2C(=O)O)CC1C1CC1 (stereo not drawn)
class: Not satisfied
//
molecule: CC(=O)N1c2ccccc2N(Cc2ccccc2N(C)C)CC1C1CC1 (stereo not drawn)
class: Satisfied
//
molecule: CC(=O)N1c2ccccc2N(Cc2ccccc2CO)CC1C1CC1 (single isomer, unassigned)
class: Satisfied

====

testName: physchem
conditionContext: buffer, pH 7.4, logD
readoutName: chromatographic logD

compound: CC(=O)N1c2ccccc2N(Cc2ccccc2)CC1C1CC1 (centres undefined)
numericValue: 6.7

compound: CC(=O)N1c2ccccc2N(Cc2ccccc2C(N)=O)CC1C1CC1 (centres undefined)
numericValue: 3.9

compound: CC(=O)N1CCN(Cc2ccccc2)c2ccccc21
numericValue: 5.6

compound: CC(=O)N1c2ccccc2N(Cc2cccc(C)c2)CC1C (centres undefined)
numericValue: 6.5

compound: CCC1CN(Cc2ccccc2)c2cc(-c3cn[nH]c3)ccc2N1C(C)=O (centres undefined)
numericValue: 4.2

compound: CCC1CN(Cc2ccccc2)c2cc(-c3cccnc3)ccc2N1C(C)=O (centres undefined)
numericValue: 5.6

compound: CCC1CN(Cc2ccccc2)c2cc(C3=CCOCC3)ccc2N1C(C)=O (centres undefined)
numericValue: 6.5

compound: CCOC(=O)c1ccccc1CN1CC(C2CC2)N(C(C)=O)c2ccccc21 (centres undefined)
numericValue: 7.2

compound: CC(=O)N1c2ccccc2N(Cc2ccccc2O)CC1C1CC1 (centres undefined)
numericValue: 5.2

====

testName: physchem
conditionContext: buffer, pH 7.4, logD
readoutName: chromatographic logD

compound: CC(=O)N1c2ccccc2N(Cc2ccccc2N(C)C)CC1C1CC1 (configuration not stated)
readoutName: chromatographic logD
numericValue: 7.5
--
compound: CC(=O)N1c2ccccc2N(Cc2ccccc2CO)CC1C1CC1 (racemic)
readoutName: chromatographic logD
numericValue: 4.9
--
compound: CC(=O)N1c2ccccc2N(Cc2cccc(CO)c2)CC1C1CC1 (configuration not stated)
readoutName: chromatographic logD
numericValue: 4.7
--
compound: CC(=O)N1c2ccccc2N(Cc2cccc(O)c2)CC1C1CC1 (configuration not stated)
readoutName: chromatographic logD
numericValue: 4.9
--
compound: CC(=O)N1c2ccccc2N(Cc2ccccc2CC(=O)O)CC1C1CC1 (configuration not stated)
readoutName: chromatographic logD
numericValue: 2.4
--
compound: CC(=O)N1c2ccccc2N(Cc2ccc(Cl)cc2C(=O)O)CC1C1CC1 (configuration not stated)
readoutName: chromatographic logD
numericValue: 2.9
--
compound: CCC1CN(Cc2cccc(C)c2)c2ccccc2N1C(C)=O (configuration not stated)
readoutName: chromatographic logD
numericValue: 7.1
